Experiment: Drug concentration in C57 mouse blood at 1000 mg/kg, po administered via gavage measured at 24 hrs by LC-MS/MS analysis
Assay type: ADME, organism-based
Conditions: read-out: Ct
parameter: concentration at 24 h (ng/mL)
State the answer as a number, implicitly in ng/mL.

Request: Suppose we examine the compound c1ccc2c(Oc3nc(Nc4ccc(N5CCOCC5)cc4)c4ncn(C5CCCCC5)c4n3)cccc2c1 ; what concentration at 24 h value has been reported?
Result: 61

---

Assay: Half life in C57 mouse blood at 1000 mg/kg, po administered via gavage measured upto 24 hrs by LC-MS/MS analysis
Assay type: ADME, organism-based
parameter: half-life (h)
Reply with just the number (in h).

Request: May I ask what half-life has been recorded for c1ccc2c(Oc3nc(Nc4ccc(N5CCOCC5)cc4)c4ncn(C5CCCCC5)c4n3)cccc2c1 ?
Result: 7.7

---

Measured Emax by item
Target: Secretin receptor (Homo sapiens, UniProt P47872)
Sequence (P47872 whole entry): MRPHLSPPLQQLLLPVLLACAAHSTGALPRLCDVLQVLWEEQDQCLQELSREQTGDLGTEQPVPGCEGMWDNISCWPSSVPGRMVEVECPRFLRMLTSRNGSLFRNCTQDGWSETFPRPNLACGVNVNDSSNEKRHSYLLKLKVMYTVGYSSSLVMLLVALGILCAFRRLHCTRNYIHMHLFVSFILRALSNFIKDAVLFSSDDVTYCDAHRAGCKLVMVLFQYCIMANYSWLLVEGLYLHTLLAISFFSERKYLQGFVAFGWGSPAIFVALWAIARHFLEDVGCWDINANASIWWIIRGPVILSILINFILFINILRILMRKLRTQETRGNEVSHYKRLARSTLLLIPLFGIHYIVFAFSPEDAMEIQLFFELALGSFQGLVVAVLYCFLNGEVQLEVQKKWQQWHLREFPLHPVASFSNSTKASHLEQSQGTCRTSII
Test: Positive allosteric modulation of SCTR (unknown origin) overexpressed in CHO cells assessed as potentiation of SCT-induced cAMP production by measuring maximal response at 100 uM incubated for 20 mins by Lance cAMP assay relative to control (reference value: 100 %)
Type: functional, cell-based
Settings: filed as positive allosteric modulator
Give your result in % as a bare value.

Worked cases, Emax given:
- smiles input: "c1ccc2c(Oc3nc(Nc4ccc(N5CCOCC5)cc4)c4ncn(C5CCCCC5)c4n3)cccc2c1"
  value observed: 204
- smiles input: "Oc1ccc2c(Oc3nc(Nc4ccc(N5CCOCC5)cc4)c4ncn(C5CCCCC5)c4n3)cccc2c1"
  value observed: 146
- smiles input: "O=C(O)c1cn(C2CCCCC2)c2nc(Oc3cccc4ccccc34)nc(Nc3ccc(N4CCOCC4)cc3)c12"
  value observed: 157
- smiles input: "Oc1cc(N2CCOCC2)ccc1Nc1nc(Oc2cccc3ccccc23)nc2c1ncn2C1CCCCC1"
  value observed: 181

Request: # input compound: O[C@@H]1CCC[C@H](n2cnc3c(Nc4ccc(N5CCOCC5)cc4)nc(Oc4cccc5ccccc45)nc32)C1 ; wanted: its Emax
Result: 165

Request: Look up Emax: c1ccc(Oc2ccc(Nc3nc(Oc4cccc5ccccc45)nc4c3ncn4C3CCCCC3)cc2)cc1
Result: 98.8

Request: Emax lookup needed for OC1CCN(c2ccc(Nc3nc(Oc4cccc5ccccc45)nc4c3ncn4C3CCCCC3)cc2)CC1 , thanks.
Result: 166

---

Assay: Tmax in C57 mouse blood at 1000 mg/kg, po administered via gavage measured upto 24 hrs by LC-MS/MS analysis
Assay type: ADME, organism-based
parameter: Tmax
Number first, unit second.

Request: Report Tmax for c1ccc2c(Oc3nc(Nc4ccc(N5CCOCC5)cc4)c4ncn(C5CCCCC5)c4n3)cccc2c1 please.
Result: 30 min

---

Assay: Drug concentration in C57 mouse blood at 1000 mg/kg, po administered via gavage measured at 6 hrs by LC-MS/MS analysis
Assay type: ADME, organism-based
Conditions: read-out: Ct
parameter: concentration at 6 h

Request: If you can, please state the reported concentration at 6 h value of c1ccc2c(Oc3nc(Nc4ccc(N5CCOCC5)cc4)c4ncn(C5CCCCC5)c4n3)cccc2c1 .
Result: > 300 ng/mL

---

Assay: Cmax in C57 mouse blood at 1000 mg/kg, po administered via gavage measured upto 24 hrs by LC-MS/MS analysis
Assay type: ADME, organism-based
Parameters: time < 24 hrs, dose 1000 mg/kg, route po
parameter: Cmax (ng/mL)
Report the figure in ng/mL without appending any unit label.

Request: Give the measured Cmax of c1ccc2c(Oc3nc(Nc4ccc(N5CCOCC5)cc4)c4ncn(C5CCCCC5)c4n3)cccc2c1 [PURMORPHAMINE] .
Result: 647
